Data provenance is paper PMC13494018.

TARGET_UNDER_TEST: VTCN1, Q7Z7D3
Sequence (Q7Z7D3 whole entry): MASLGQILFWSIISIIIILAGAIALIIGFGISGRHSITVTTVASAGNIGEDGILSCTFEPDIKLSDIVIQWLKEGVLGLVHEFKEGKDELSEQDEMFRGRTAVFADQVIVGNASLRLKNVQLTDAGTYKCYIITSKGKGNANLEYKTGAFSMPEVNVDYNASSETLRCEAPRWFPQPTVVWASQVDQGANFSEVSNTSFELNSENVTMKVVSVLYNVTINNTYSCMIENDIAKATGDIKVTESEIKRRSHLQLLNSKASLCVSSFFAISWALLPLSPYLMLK
QUANTITY_NAME: binding in a display sort

BINDER: design_609_7ee6ce64-4629-41e8-bcb4-ba0da017284d_2409_dldesign_0_cycle1_af2pred (protein) SMEEEELRKKADEVAEKAAKIAEEADPELGKKFRERAEKAKKDPVDAYAYYVAQAAKSGGIILEKLGKEEEGKKLKELGKELEKALEE
RESULT: not found (inactive)

BINDER: design_376_bf9d4634-8475-4fdb-a175-1db49a23bdcd_746_dldesign_0_cycle1_af2pred (protein) MEKAEEMGERLIEAVKESPEKAREVAEEMVRRAKEGDVEEAAAIAQAVAEAYAVAVKENKEAAEIVREALREVQEIGRKKR
RESULT: not found (inactive)

BINDER: design_608_fd41b8f9-4da9-4c78-93ec-aaa316ed4933_1810_dldesign_0_cycle1_af2pred (protein) MEELKKVVEETKEYAKKLIESDGFSLVGKSAYEAAEKALKEGNLEKAKEIYEKTKKMYERAEEYEKLAEEREKKYL
RESULT: not found (inactive)

BINDER: design_606_b60ff77f-1541-4e5f-8260-46d5e5f6b85e_1592_dldesign_0_cycle1_af2pred (protein) AAAAAAAAERAAIQKELDEIRDKYLEELEKNPENAEEIIKKAKEAVEALAKKHAKFAEEILKGGNGYVSLIEATAKMLERRKKEE
RESULT: not found (inactive)

BINDER: design_609_7ee6ce64-4629-41e8-bcb4-ba0da017284d_519_dldesign_0_cycle1_af2pred (protein) SEEAERELTLAKGYAELAKELAEQGPKAAKSAVKDAEKEAKEAEKIDPEVGKKAKELAEEAKKYVEEKEK
RESULT: not found (inactive)
